Source listed as patent US20260297118A1.

Exercise: for every item that follows, state its recorded MIC.
test system: Escherichia coli (25922); assay: MIC, broth microdilution, Escherichia coli (25922); format: cell-based; settings: pH 3, Mueller Hinton Broth, 18 to 24 hours, read-out: MIC

Query MIC on Escherichia coli (25922) for CC(C)CCOP(=O)(O)OC[C@H]1O[C@@H](n2ccc(N)nc2=O)C[C@@H]1O
25 mg/mL

Try the molecule CCCCOP(=O)(O)OC[C@H]1O[C@@H](n2ccc(NC)nc2=O)C[C@@H]1O
25 mg/mL

Try the molecule CCCCOP(=O)(O)OC[C@H]1O[C@@H](n2ccc(N(C)C)nc2=O)[C@H](OC)[C@@H]1O
1.25 mg/mL

Try the molecule Nc1ccn([C@H]2C[C@H](O)[C@@H](COP(=O)(O)OCCCC(F)(F)F)O2)c(=O)n1
25 mg/mL

Try the molecule CCCCOP(=O)(O)OC[C@H]1O[C@@H](n2ccc(N(C)C)nc2=O)C[C@@H]1O
1 mg/mL

Try the molecule CCCCOP(=O)(O)OC[C@H]1O[C@@H](n2ccc(N)nc2=O)C(F)(F)[C@@H]1O
0.6 mg/mL

Try the molecule CCCCOP(=O)(O)OC[C@@H]1CC[C@H](n2ccc(N)nc2=O)O1
25 mg/mL
